- testProtocol: chemical genetic growth profiling, strain panel (AID 1159580);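 also: tested at 20 µM; growth read once vehicle control cultures reached saturation at 30 °C; 1 = growth at the plate median or of vehicle wells; lower values mean less growth of the strain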
- cond: S. cerevisiae deletion strains, growth OD, locus YDR137W, strain rgp1
Structures can show the parent of a compound that is named as a salt. Among all 5,500 compounds or so, about 2,000 (36%) were called active. Roughly 18% stayed inconclusive and do not appear here. Rule as the data show it: active = normalized growth mostly below about 0.91 (no sharp cut-off); inconclusive = no clear call, values can overlap the other calls; inactive = mostly above about 0.92. Some of the results follow. Where a SMILES comes first, the peptide text is derived from it. The star is where a group is joined. Tfa = O=C(C(F)(F)F)*
Hello, when you answer, please use one of the following outcomes: 1.0 (active), 0.0 (inactive)

Please review the following examples before continuing.
| molecule | cat |
| --- | --- |
| Cc1cc(NC(=O)C2=C(O)c3ccccc3S(=O)(=O)N2C)no1 | 0.0 |
| CC(=O)N[C@@H](CS)C(=O)O | 0.0 |
| O=C1[C@H](CCC(O)c2ccc(F)cc2)[C@@H](c2ccc(O)cc2)N1c1ccc(F)cc1 (stereo partly specified) | 0.0 |

Which outcome was assigned to C#CCCCCCCCCCCCC(=O)CC(O)COC(C)=O (stereo unspecified) in this test?
0.0

Which outcome was assigned to CC(C)C(NC(=O)C(Cc1ccc(O)cc1)NC(=O)C(NC(=O)C(F)(F)F)C(C)C)C(=O)O (stereo not drawn) (Tfa-Val-Tyr-Val-OH; configuration not given here) in this test?
0.0

Which outcome was assigned to Cc1ccc(Cl)c(Nc2ccccc2C(=O)O)c1Cl in this test?
1.0

Which outcome was assigned to CC[C@H](C)C(=O)O[C@H]1C[C@@H](C)C=C2C=C[C@H](C)[C@H](CC[C@@H]3C[C@@H](O)CC(=O)O3)[C@H]21 in this test?
1.0

Which outcome was assigned to CCOC(=O)c1ccc(O)cc1 in this test?
0.0
